Conditions: in ethyl acetate, 309.19 K
outcome-measure: solubility (mole fraction)

Input line: What does the record list as solubility (mole fraction) for COc1cnc(Cl)nc1Cl ?
Output line: 0.422

* * *

Details: in tetrachloromethane, 301.97 K
outcome-measure: solubility (mole fraction)

Input line: What does the record list as solubility (mole fraction) for COc1cnc(Cl)nc1Cl ?
Output line: 0.159

* * *

Conditions: in ethanol, 316.61 K
outcome-measure: solubility (mole fraction)
// return a plain number; no unit text

Input line: What does the record list as solubility (mole fraction) for COc1cnc(Cl)nc1Cl ?
Output line: 0.158

* * *

Details: in ethyl acetate, 311.16 K
outcome-measure: solubility (mole fraction)
// return a plain number; no unit text

Input line: What does the record list as solubility (mole fraction) for COc1cnc(Cl)nc1Cl ?
Output line: 0.444

* * *

Conditions: in ethanol, 307.06 K
outcome-measure: solubility (mole fraction)
// return a plain number; no unit text

Input line: What does the record list as solubility (mole fraction) for COc1cnc(Cl)nc1Cl ?
Output line: 0.0745
